# Target Entity: recombinant human PAI-1 (Homo sapiens)
# Measurement Description: Test Example 2: Human PAI-1 Inhibitory Activity (pH 7.4 HEPES buffer, 10 minutes incubation with two-chain tPA)
# Assay type: biochemical
# Design: purchased Molecular Innovations, Inc
# Condition Summary: read-out: Inhibition Rate of PAI-1 Activity (%)
# Procedure: 0.1 M HEPES, 0.1 M NaCl. 1 mM EDTA. 0.1 % Polyethylene glycol 8,000 (Hampton Research Corporation), 2 mM Dimethyldecylphoshine oxide [Apo-10] (Fluka Corporation)

Smiles Str	inhibition at 3 µM
CC(C)(C)c1ccc(Oc2cc(-c3ccc(OC(F)(F)F)cc3)ccc2OCC(=O)O)cc1	> 99%
CCCCCCCCCOc1ccc(-c2ccc(OC(F)(F)F)cc2)cc1N(CCCCc1ccccc1)C(=O)C(=O)O	92%
CCCCc1ccc(CN(C(=O)C(=O)O)c2ccc(-c3ccc(C(C)(C)C)cc3)cc2)cc1	> 99%
CCCCCCCc1ccc(-c2ccc(OC(F)(F)F)cc2)cc1N(CCCCc1ccccc1)C(=O)C(=O)O	91%
CCC(CC)Oc1ccc(N(Cc2ccc(C(C)(C)C)cc2)C(=O)C(=O)O)cc1-c1ccc(OC(F)(F)F)cc1	> 99%
CC(C)(C)c1ccc(CN(C(=O)C(=O)O)c2ccc(Cl)c(-c3ccc(OC(F)(F)F)cc3)c2)cc1	> 99%
O=C(O)/C=C/c1ccc(-c2ccc(OC(F)(F)F)cc2)cc1Oc1ccc(OC(F)(F)F)cc1	> 99%

###

# Target Entity: recombinant human PAI-1 (Homo sapiens, UniProt P05121)
# Sequence (P05121 24-402): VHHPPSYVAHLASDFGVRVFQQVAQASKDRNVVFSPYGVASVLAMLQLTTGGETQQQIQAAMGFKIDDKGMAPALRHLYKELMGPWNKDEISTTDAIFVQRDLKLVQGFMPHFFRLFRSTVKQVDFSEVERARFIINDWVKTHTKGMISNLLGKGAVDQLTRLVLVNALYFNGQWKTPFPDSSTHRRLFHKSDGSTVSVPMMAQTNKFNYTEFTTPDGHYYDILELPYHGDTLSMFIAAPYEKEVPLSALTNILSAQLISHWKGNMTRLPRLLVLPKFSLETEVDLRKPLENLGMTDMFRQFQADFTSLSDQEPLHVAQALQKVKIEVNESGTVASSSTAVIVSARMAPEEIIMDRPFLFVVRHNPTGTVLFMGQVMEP
# Measurement Description: biochemical
# Condition Summary: read-out: Inhibition Rate of PAI-1 Activity (%)

Smiles Str	Units Symbol	inhibition at 10 µM
Cc1ccc(-c2ccc(N(Cc3ccc(C(C)(C)C)cc3)C(=O)C(=O)O)cc2)cc1	%	5
O=C(O)CCc1cc(-c2ccc(OC(F)(F)F)cc2)ccc1OCCCOc1ccccc1	%	57
Cc1ccc(N(Cc2ccc(C(C)(C)C)cc2)C(=O)C(=O)O)cc1Oc1ccc(OC(F)(F)F)cc1	%	92
Cc1cc(-c2ccc(OC(F)(F)F)cc2)cc(CCC(=O)O)c1OCc1ccc(C(C)(C)C)cc1	%	62
CC(C)(C)c1ccc(-c2ccc(N(Cc3ccc(Cl)cc3)C(=O)C(=O)O)cc2)cc1	%	85
CC(C)(C)c1ccc(CN(C(=O)C(=O)O)c2ccc(-c3ccc(Cl)cc3)cc2)cc1	%	6
CC(C)(C)c1ccc(CN(C(=O)C(=O)O)c2ccccc2OCc2ccc(OC(F)(F)F)cc2)cc1	%	77
CC(C)(C)c1ccc(CN(C(=O)C(=O)O)c2ccc(SCc3ccc(OC(F)(F)F)cc3)cc2)cc1	%	89

###

# reported inhibition at 3 µM; entries follow
# Target Entity: recombinant human PAI-1 (Homo sapiens)
# Measurement Description: Test Example 2: Human PAI-1 Inhibitory Activity (pH 7.4 HEPES buffer, 10 minutes incubation with two-chain tPA)
# Format: biochemical
# Set-up: purchased Molecular Innovations, Inc
# Condition Summary: read-out: Inhibition Rate of PAI-1 Activity (%)
Property Measured: inhibition at 3 µM (%)

Molecule	Property Measured	Comparison Symbol	Obs Value
O=C(O)CCc1ccc(-c2ccc(OC(F)(F)F)cc2)cc1OCCCOCc1ccccc1	inhibition at 3 µM	=	91
O=C(O)C(=O)N(CCCCc1ccccc1)c1ccc(N2CCCCCC2)c(-c2ccc(OC(F)(F)F)cc2)c1	inhibition at 3 µM	=	98
COc1cc(OC)c(N(Cc2ccc(C(C)(C)C)cc2)C(=O)C(=O)O)cc1-c1ccc(OC(F)(F)F)cc1	inhibition at 3 µM	=	95
CCCCCOc1cc(N(CCCCc2ccccc2)C(=O)C(=O)O)ccc1-c1ccc(OC(F)(F)F)cc1	inhibition at 3 µM	>	99
CC(C)(C)c1ccc(CN(C(=O)C(=O)O)c2cccc(Oc3ccc(OC(F)(F)F)cc3)c2)cc1	inhibition at 3 µM	=	76
CC(C)(C)c1ccc(CCc2cc(-c3ccc(OC(F)(F)F)cc3)ccc2OCC(=O)O)cc1	inhibition at 3 µM	>	99
CCCCCOc1ccc(-c2ccc(OC(F)(F)F)cc2)cc1CN(C(=O)C(=O)O)c1ccc(C(C)(C)C)cc1	inhibition at 3 µM	>	99
CCCCCCCCCCOc1ccc(-c2ccc(OC(F)(F)F)cc2)cc1N(CCCCc1ccccc1)C(=O)C(=O)O	inhibition at 3 µM	=	92
CC(C)(C)c1ccc(COc2ccc(-c3ccc(OC(F)(F)F)cc3)cc2OCC(=O)O)cc1	inhibition at 3 µM	=	99
CC(C)(C)c1ccc(Oc2cc(-c3cc(Cl)ccc3Cl)ccc2CCC(=O)O)cc1	inhibition at 3 µM	>	99
CC(C)(C)c1ccc(Oc2cc(-c3cccc(C(F)(F)F)c3)ccc2CCC(=O)O)cc1	inhibition at 3 µM	>	99
CCCCOc1ccc(Oc2cc(-c3ccc(OC(F)(F)F)cc3)ccc2CCC(=O)O)cc1	inhibition at 3 µM	=	98
CCCCC(Oc1cc(-c2cccc(C)c2)ccc1Oc1ccc(C(C)(C)C)cc1)C(=O)O (stereo not shown)	inhibition at 3 µM	=	94
O=C(O)C(=O)N(CCCCc1ccccc1)c1cc(-c2ccc(OC(F)(F)F)cc2)ccc1OCCCC1CCCC1	inhibition at 3 µM	=	86
CC(C)(C)c1ccc(N(Cc2ccc(-c3ccccc3)cc2)C(=O)C(=O)O)cc1	inhibition at 3 µM	=	25
CC(C)(C)Oc1ccc(Oc2cc(-c3ccc(OC(F)(F)F)cc3)ccc2CCC(=O)O)cc1	inhibition at 3 µM	>	99

###

# Target Entity: recombinant human PAI-1 (Homo sapiens, UniProt P05121)
# Measurement Description: biochemical
# Condition Summary: read-out: Inhibition Rate of PAI-1 Activity (%), Compound Concentration 10µM
Rule: inhibition at 10 µM under 90% gives condition not met, otherwise condition met.

Smiles Str	Target Entity	Group Label
CC(C)(C)c1ccc(COc2ccc(-c3ccc(OC(F)(F)F)cc3)cc2OCC(=O)O)cc1	recombinant human PAI-1 (Homo sapiens, UniProt P05121)	condition not met
CC(C)(Oc1c(Oc2ccc(C(C)(C)C)cc2)cccc1-c1ccc(OC(F)(F)F)cc1)C(=O)O	recombinant human PAI-1 (Homo sapiens, UniProt P05121)	condition not met
CC(C)(C)c1ccc(CN(C(=O)C(=O)O)c2cc(C(F)(F)F)ccc2-c2ccc(OC(F)(F)F)cc2)cc1	recombinant human PAI-1 (Homo sapiens, UniProt P05121)	condition met
CCCCOc1ccc(-c2ccc(OC(F)(F)F)cc2)cc1N(CCCCc1ccccc1)C(=O)C(=O)O	recombinant human PAI-1 (Homo sapiens, UniProt P05121)	condition met
CC(C)(C)c1ccc(CN(C(=O)C(=O)O)c2ccc(-c3ccc(OC(F)(F)F)cc3)cc2Cl)cc1	recombinant human PAI-1 (Homo sapiens, UniProt P05121)	condition not met
Cc1ccc(N(Cc2ccc(C(C)(C)C)cc2)C(=O)C(=O)O)cc1-c1ccc(OC(F)(F)F)cc1	recombinant human PAI-1 (Homo sapiens, UniProt P05121)	condition met

###

# reported inhibition at 3 µM; entries follow
# Target Entity: recombinant human PAI-1 (Homo sapiens, UniProt P05121)
# Measurement Description: Test Example 2: Human PAI-1 Inhibitory Activity (pH 7.4 HEPES buffer, 10 minutes incubation with two-chain tPA)
# Format: biochemical
# Design: purchased Molecular Innovations, Inc
# Condition Summary: read-out: Inhibition Rate of PAI-1 Activity (%)
# Description: 0.1 M HEPES, 0.1 M NaCl. 1 mM EDTA. 0.1 % Polyethylene glycol 8,000 (Hampton Research Corporation), 2 mM Dimethyldecylphoshine oxide [Apo-10] (Fluka Corporation)
Property Measured: inhibition at 3 µM (%)

Compound	Units Symbol	Comparison Symbol	Obs Value
CC(C)(C)c1ccc(Sc2cc(-c3ccc(OC(F)(F)F)cc3)ccc2CCC(=O)O)cc1	%	>	99
CCCCC(Oc1ccc(-c2cccc(C)c2)cc1Oc1ccc(C(C)(C)C)cc1)C(=O)O (stereo not shown)	%	=	94
CC(C)(C)c1ccc(Oc2cc(-c3ccc(C(C)(C)C)cc3)ccc2OCC(=O)O)cc1	%	>	99
O=C(O)C(=O)N(CCCCc1ccccc1)c1cc(-c2ccc(OC(F)(F)F)cc2)ccc1OC1CCCCCC1	%	=	96
CSc1ccc(-c2ccc(OCC(=O)O)c(Oc3ccc(C(C)(C)C)cc3)c2)cc1	%	>	99
Cc1cc(N(C)C)c(-c2ccc(OC(F)(F)F)cc2)cc1N(Cc1ccc(C(C)(C)C)cc1)C(=O)C(=O)O	%	=	95
CC(C)(C)c1ccc(COc2ccc(NS(=O)(=O)c3ccc(OC(F)(F)F)cc3)cc2CCC(=O)O)cc1	%	=	98

###

# Target Entity: recombinant human PAI-1 (Homo sapiens, UniProt P05121)
# Measurement Description: Test Example 2: Human PAI-1 Inhibitory Activity (pH 7.4 HEPES buffer, 10 minutes incubation with two-chain tPA)
# Type: biochemical
# Design: purchased Molecular Innovations, Inc
# Condition Summary: read-out: Inhibition Rate of PAI-1 Activity (%)

Molecule	Units Symbol	Comparison Symbol	inhibition at 3 µM
CC(C)(C)c1ccc(Oc2ccc(-c3cccc(C(F)(F)F)c3)cc2OCC(=O)O)cc1 [Compound 314]	%	=	93
CC(C)(C)c1ccc(Oc2cc(-c3ccc(C(C)(C)C)cc3)ccc2CCC(=O)O)cc1 [Compound 497]	%	>	99
CCCCCCCOc1ccc(N(CCCCc2ccccc2)C(=O)C(=O)O)cc1-c1ccc(OC(F)(F)F)cc1 [Compound 394]	%	>	99
CCCCCOc1cc(-c2ccc(OC(F)(F)F)cc2)ccc1CN(CC(=O)O)c1ccc(C(C)(C)C)cc1 [Compound 649]	%	=	97
CCCCC(Oc1cc(-c2cccc(C(F)(F)F)c2)ccc1Oc1ccc(C(C)(C)C)cc1)C(=O)O (stereo not drawn) [Compound 318]	%	>	99
O=C(O)CCc1cc(-c2ccc(OC(F)(F)F)cc2)ccc1OCCCCCOc1ccc(-c2ccc(OC(F)(F)F)cc2)cc1CCC(=O)O [Compound 544]	%	=	92
CC(C)(C)c1ccc(-c2ccc(CN(C(=O)C(=O)O)c3ccc(OC(F)(F)F)cc3)cc2)cc1 [Compound 615]	%	=	98
O=C(O)COc1ccc(-c2ccc(OC(F)(F)F)cc2)cc1OCCCCc1ccccc1 [Compound 337]	%	=	97
CC(C)(C)c1ccc(CN(C(=O)C(=O)O)c2ccc(C(=O)Nc3ccc(OC(F)(F)F)cc3)cc2)cc1 [Compound 617]	%	=	64
CCCCC(Oc1cc(-c2ccc(OC(F)(F)F)cc2)ccc1OCCCCc1ccc(F)cc1)C(=O)O (stereo not drawn) [Compound 324]	%	=	97
CC(C)(C)c1ccc(Oc2cc(-c3ccccc3OC(F)(F)F)ccc2OCC(=O)O)cc1 [Compound 456]	%	=	98
CCCCOc1ccc(N(Cc2ccc(C(C)(C)C)cc2)C(=O)C(=O)O)cc1-c1ccc(OC(F)(F)F)cc1 [Compound 193]	%	>	99
CC(C)(C)c1ccc(Oc2cc(-c3ccc(OC(F)(F)F)cc3)ccc2/C=C\C(=O)O)cc1 [Compound 450]	%	=	98
CCCCCOc1ccc(-c2ccc(OC(F)(F)F)cc2)cc1N(CCCCC)C(=O)C(=O)O [Compound 366]	%	=	96
CCCCCOc1cc(-c2cccc(C)c2)ccc1N(CCCCc1ccccc1)C(=O)C(=O)O [Compound 376]	%	=	95
O=C(O)CC(=O)N(Cc1ccccc1)c1ccc(-c2ccc(OC(F)(F)F)cc2)cc1F [Compound 602]	%	=	18
CC(C)c1ccc(Oc2cc(-c3ccc(OC(F)(F)F)cc3)ccc2CCC(=O)O)cc1 [Compound 510]	%	>	99
CCCCCOc1ccc(-c2cccc(C(F)(F)F)c2)cc1N(CCCCc1ccccc1)C(=O)C(=O)O [Compound 378]	%	=	91
CC(C)(C)c1ccc(Oc2cc(-c3ccc(OC(F)(F)F)cc3)ccc2NCC(=O)O)cc1 [Compound 442]	%	>	99
CCCCCOc1cc(-c2ccc(OC(F)(F)F)cc2)cc(OCc2ccc(C(C)(C)C)cc2)c1OCC(=O)O [Compound 301]	%	=	97
O=C(O)C(=O)N(CCCCc1ccccc1)c1cc(-c2ccc(OC(F)(F)F)cc2)ccc1OCCCCc1ccccc1 [Compound 354]	%	=	89
Cc1cc(C)cc(-c2ccc(CCC(=O)O)c(Oc3ccc(C(C)(C)C)cc3)c2)c1 [Compound 498]	%	>	99
CC(C)(C)c1ccc(C(c2ccccc2)N(C(=O)C(=O)O)c2ccc(-c3ccc(OC(F)(F)F)cc3)cc2)cc1 (stereo not drawn) [Compound 222]	%	>	99
CCCCN(CC(=O)O)c1ccc(-c2ccc(OC(F)(F)F)cc2)cc1Oc1ccc(C(C)(C)C)cc1 [Compound 533]	%	=	97
O=C(O)C(=O)N(Cc1ccc(-c2ccc(OC(F)(F)F)cc2)cc1)c1ccccc1-c1ccccc1 [Compound 632]	%	=	97
CC(C)c1ccc(-c2ccc(OCC(=O)O)c(Oc3ccc(C(C)(C)C)cc3)c2)cc1 [Compound 441]	%	=	98
CC(C)(C)[C@H]1CC[C@H](N(C(=O)C(=O)O)c2ccc(-c3ccc(OC(F)(F)F)cc3)cc2)CC1 [Compound 665]	%	>	99
CCCCC(Oc1ccc(-c2ccc(OC(F)(F)F)cc2)cc1Oc1ccc(C(C)(C)C)cc1)C(=O)O (stereo not drawn) [Compound 305]	%	=	88
CCCCC(Oc1ccc(-c2cccc(C(F)(F)F)c2)cc1Oc1ccc(C(C)(C)C)cc1)C(=O)O (stereo not drawn) [Compound 320]	%	=	98
CCCCCOc1ccc(-c2ccc(F)cc2)cc1N(CCCCc1ccccc1)C(=O)C(=O)O [Compound 359]	%	=	96
